Hello, the source for this data is patent US12447153B2, in case you need it.

molecular target: ErbB2 with Exon 20 YVMA insertion (HER2-YVMA) (Homo sapiens (Human), UniProt P04626, INS775YVMA); assay: Cellular Phosphorylation Assay, Assay 4 (constitutive ErbB2 phosphorylation, NIH 3T3 cells); type: cell-based; settings: ErbB2 YVMA phosphorylation
Sequence (P04626 other isoform, or with tags, fused parts or gaps ins YVMA behind 775): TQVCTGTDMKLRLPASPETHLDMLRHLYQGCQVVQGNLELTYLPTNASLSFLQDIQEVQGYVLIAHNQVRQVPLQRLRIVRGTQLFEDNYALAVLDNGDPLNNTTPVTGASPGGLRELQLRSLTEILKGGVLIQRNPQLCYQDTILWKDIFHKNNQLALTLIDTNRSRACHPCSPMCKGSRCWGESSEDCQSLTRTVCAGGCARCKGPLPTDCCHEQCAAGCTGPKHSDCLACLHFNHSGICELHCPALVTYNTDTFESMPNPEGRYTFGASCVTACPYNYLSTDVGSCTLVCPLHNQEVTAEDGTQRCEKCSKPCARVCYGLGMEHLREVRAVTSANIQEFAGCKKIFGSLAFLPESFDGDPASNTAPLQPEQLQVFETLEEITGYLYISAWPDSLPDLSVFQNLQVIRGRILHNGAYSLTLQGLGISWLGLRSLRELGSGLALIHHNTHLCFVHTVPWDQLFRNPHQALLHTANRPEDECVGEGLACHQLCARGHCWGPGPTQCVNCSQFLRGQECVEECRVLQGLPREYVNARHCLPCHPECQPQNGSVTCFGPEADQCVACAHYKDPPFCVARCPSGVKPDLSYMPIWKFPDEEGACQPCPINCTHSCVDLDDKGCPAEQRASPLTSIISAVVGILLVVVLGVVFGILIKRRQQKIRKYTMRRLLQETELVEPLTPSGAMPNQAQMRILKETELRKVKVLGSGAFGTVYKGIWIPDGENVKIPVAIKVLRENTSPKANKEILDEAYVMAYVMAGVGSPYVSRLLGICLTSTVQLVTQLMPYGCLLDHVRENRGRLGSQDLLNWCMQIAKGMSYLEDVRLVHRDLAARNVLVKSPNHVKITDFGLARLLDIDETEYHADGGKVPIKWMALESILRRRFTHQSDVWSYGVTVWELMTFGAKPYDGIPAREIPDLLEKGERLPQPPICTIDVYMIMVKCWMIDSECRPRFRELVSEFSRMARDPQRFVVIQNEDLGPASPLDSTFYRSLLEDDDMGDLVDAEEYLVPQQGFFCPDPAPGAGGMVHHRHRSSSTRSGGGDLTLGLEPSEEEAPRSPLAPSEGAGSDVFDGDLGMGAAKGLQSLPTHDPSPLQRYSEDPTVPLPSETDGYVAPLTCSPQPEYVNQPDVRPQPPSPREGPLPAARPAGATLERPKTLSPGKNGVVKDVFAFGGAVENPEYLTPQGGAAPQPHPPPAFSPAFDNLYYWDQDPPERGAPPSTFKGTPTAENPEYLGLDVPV
Measurement name: IC50 (µM)

Below, 5 compounds whose answers are already recorded.
>>> test_result("C=CC(=O)N1CC[C@@H](c2ccc3ncnc(Nc4cc(C)c(Oc5ccc6c(c5)ncn6C)cc4F)c3n2)C1 (racemic) [Example 132]")
0.0188
>>> test_result("C=CC(=O)N1CC(Sc2ccc3ncnc(Nc4ccc(Oc5ccc6c(c5)ncn6C)c(C)c4F)c3n2)C1 [Example 61]")
0.0344
>>> test_result("Cc1c(Oc2ccn3ncnc3c2)ccc(Nc2ncnc3ccc(N4CCN(C(=O)C56CC5C6)C(C)(C)C4)nc23)c1F (stereo not shown) [Example 186]")
0.408
>>> test_result("C=CC(=O)N1C[C@H](c2ccc3ncnc(Nc4cc(C)c(Oc5ccc6c(c5)ncn6C)cc4F)c3n2)CCC1(C)C (racemic) [Example 141]")
0.0176
>>> test_result("C=CC(=O)N1CCC(Oc2ccc3ncnc(Nc4ccc(Oc5cnc6cn(C)nc6c5)c(C)c4)c3n2)CC1 [Example 14]")
0.0484

A. C=CC(=O)N1CCCN(c2ccc3ncnc(Nc4ccc(Oc5ccc6c(c5)ncn6C)c(C)c4F)c3n2)CC1(C)C [Example 69]
B. C=CC(=O)N1CCCN(c2ccc3ncnc(Nc4ccc(Oc5ccc6c(c5)ncn6C)c(C)c4)c3n2)CC1 [Example 108]
Problem: A or B : whose IC50 is greater? Use the label to indicate which entry you chose.
Result: A
(A: 0.0199 µM, B: 0.0074 µM)

###

target: ErbB2 with Exon 20 YVMA insertion (HER2-YVMA) (Homo sapiens (Human), UniProt P04626, INS775YVMA); assay: Cellular Phosphorylation Assay, Assay 4 (constitutive ErbB2 phosphorylation, NIH 3T3 cells); format: cell-based; settings: ErbB2 YVMA phosphorylation
Measurement name: IC50 (nM)

>>> test_result("C=CC(=O)N1CCN(c2ccc3ncnc(Nc4cc(Cl)c(Oc5ccc6c(c5)ncn6C)cc4F)c3n2)CC1(C)C [Example 76]")
17.1
>>> test_result("C=CC(=O)N1[C@@H]2CC[C@H]1C[C@@H](c1ccc3ncnc(Nc4ccc(Oc5ccn6ncnc6c5)c(Cl)c4F)c3n1)C2 [Example 214]")
25

I. C=CC(=O)N1CCC(Oc2ccc3ncnc(Nc4ccc(Oc5ccc6cn(C)nc6c5)c(F)c4)c3n2)CC1 [Example 12]
II. C=CC(=O)N1CCN(c2ccc3ncnc(Nc4ccc(Oc5ccn6ncnc6c5)c(C)c4F)c3n2)CC1(C)C [Example 31]
III. C=CC(=O)N1CCC(Oc2ccc3ncnc(Nc4ccc(Oc5ccc6cn(C)nc6c5)c(C)c4)c3n2)CC1 [Example 3]
IV. C=CC(=O)N1CCN(c2ccc3ncnc(Nc4ccc(Oc5ccn6ncnc6c5)c(Cl)c4F)c3n2)C[C@@H]1C [Example 90]
Problem: hey, can you rank those molecules up there by IC50? biggest number first please I'd appreciate it if you listed the labels in the requested order.
Result: I, III, II, IV

###

Biological target: EGFR (Homo sapiens (Human), UniProt P00533)
Sequence (P00533 25-1210): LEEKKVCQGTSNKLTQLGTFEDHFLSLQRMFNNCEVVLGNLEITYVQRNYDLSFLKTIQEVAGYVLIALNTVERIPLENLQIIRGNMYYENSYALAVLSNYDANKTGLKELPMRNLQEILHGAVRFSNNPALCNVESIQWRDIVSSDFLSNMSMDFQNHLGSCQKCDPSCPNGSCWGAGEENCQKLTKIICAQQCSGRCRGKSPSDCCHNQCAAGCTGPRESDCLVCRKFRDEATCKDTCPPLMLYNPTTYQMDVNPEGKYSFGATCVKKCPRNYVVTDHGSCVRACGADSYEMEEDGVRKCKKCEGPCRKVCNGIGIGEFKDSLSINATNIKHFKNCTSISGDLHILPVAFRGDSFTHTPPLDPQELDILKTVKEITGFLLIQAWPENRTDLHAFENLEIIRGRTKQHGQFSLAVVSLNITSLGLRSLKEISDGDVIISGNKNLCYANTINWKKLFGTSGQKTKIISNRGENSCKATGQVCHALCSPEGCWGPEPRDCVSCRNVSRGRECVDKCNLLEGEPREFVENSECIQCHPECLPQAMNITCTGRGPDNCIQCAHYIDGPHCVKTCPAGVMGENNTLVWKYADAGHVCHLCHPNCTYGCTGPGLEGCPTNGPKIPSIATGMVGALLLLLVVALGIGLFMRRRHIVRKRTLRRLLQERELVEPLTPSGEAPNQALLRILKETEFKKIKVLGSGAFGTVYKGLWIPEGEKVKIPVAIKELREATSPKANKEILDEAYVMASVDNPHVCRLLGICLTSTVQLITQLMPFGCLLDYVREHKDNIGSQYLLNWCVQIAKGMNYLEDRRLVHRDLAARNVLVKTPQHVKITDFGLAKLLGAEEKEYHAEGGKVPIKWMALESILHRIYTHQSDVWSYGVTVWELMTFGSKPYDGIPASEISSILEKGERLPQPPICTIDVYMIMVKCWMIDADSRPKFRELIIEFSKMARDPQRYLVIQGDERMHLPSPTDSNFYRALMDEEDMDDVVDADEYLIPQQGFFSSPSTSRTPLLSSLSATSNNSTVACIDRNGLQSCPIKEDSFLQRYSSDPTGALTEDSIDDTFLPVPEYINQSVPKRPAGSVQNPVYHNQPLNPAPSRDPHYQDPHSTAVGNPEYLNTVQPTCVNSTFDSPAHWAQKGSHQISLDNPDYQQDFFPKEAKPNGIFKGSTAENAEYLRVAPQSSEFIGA
Experiment: ErbB Enzyme Assay (HTRF KinEASE-TK), Assay 3
Format: biochemical
Settings: EGFR enzyme assay
Protocol: The kinases were incubated with 250 nM TK-substrate biotin (CisBio, part of cat #62TKOPEC) at 1 mM ATP along with test compounds in a buffer consisting of 25 mM HEPES, pH 7.4, 10 mM MgCl2, 0.01% Triton X-100, and 2% DMSO in a volume of 8 μL. […] After 30-minute incubation at 22° C., the reaction was quenched by adding 8 μL of quench solution containing 62.5 nM Sa-XL665 and 0.25×TK-Ab-Cryptate in HTRF detection buffer (all from CisBio, part of cat #62TKOPEC). […]
pIC50: −log10 of the molar value.
Measurement name: pIC50

>>> test_result("C=CC(=O)N1CCN(c2ccc3ncnc(Nc4ccc(Oc5ccn6ncnc6c5)c(C)c4F)c3n2)C[C@@H]1C1CCC1 (racemic)")
5.10
>>> test_result("C=CC(=O)N1C[C@H]2C[C@@H]1[C@H](c1ccc3ncnc(Nc4ccc(Oc5ccn6ncnc6c5)c(Cl)c4F)c3n1)C2")
6.47

1. C=CC(=O)N1CCN(c2ccc3ncnc(Nc4cc(C)c(Oc5cnc6c(c5)ncn6C)cc4F)c3n2)CC1(C)C
2. C=CC(=O)N1CCCC(c2ccc3ncnc(Nc4ccc(Oc5ccn6ncnc6c5)c(Cl)c4F)c3n2)CC1 (stereo not shown)
Problem: 1 or 2 : whose pIC50 is greater? Use the label to indicate which entry you chose.
Result: 2
